Cited source: PubChem BioAssay

Measured inhibition, listed per entry for reference.
Molecular target: L-lactate dehydrogenase (Plasmodium falciparum (isolate CDC / Honduras))
Experiment: PfLDH activity inhibition – cell lysate, 3D7 strain, counter-screen for P. falciparum growth inhibition project (AID 2304);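 note: 0% = vehicle and 100% = reference inhibitor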
Details: P. falciparum 3D7 crude extract, LDH APAD/NBT absorbance; at 2 µM; stronger effect = higher value
Reply with just the number (in %).

# example entries with known answers
[
  {
    "Compound": "CCCCCc1cc(OC(C)=O)c2c(c1)OC(C)(C)C=C2C1=CCN(Cc2ccccc2)CC1",
    "Measurement unit": "%",
    "inhibition": -3
  },
  {
    "Compound": "Nc1ccnc2ccc(OCCCCCCc3ccccc3)cc12",
    "Measurement unit": "%",
    "inhibition": 1
  },
  {
    "Compound": "COc1cccc(OC)c1C(=O)N1CCC2(CC1)C(=O)N(CC(=O)NC1CCCCC1)CN2c1ccccc1",
    "Measurement unit": "%",
    "inhibition": 5
  }
]

In: Identify measured inhibition corresponding to Cc1[nH]c(C)c(C2CCC(c3ccc(Cl)cc3)CC2)c(=O)c1Cl (stereo not given)
Out: -9

In: Quote inhibition reported for COc1cc(C=NNc2cc(C)nc3ccccc23)cc(OC)c1OC please.
Out: -1

In: Please report inhibition for the following compound: COc1cc(NC(=O)CCCN2CCN(c3cccc(Cl)c3Cl)CC2)ccc1N1CCN(C(C)C)CC1
Out: 4

In: // Input: CCCCCCCCCn1c(NCc2cc(Cl)ccc2O)nc2ccccc21 . Output its inhibition only.
Out: -4

In: Respond only with inhibition recorded for CCCC1(NC[C@@H](O)[C@H](Cc2ccccc2)NC(=O)c2cc(NCC)cc(N3CCCCS3(=O)=O)c2)CCCC1
Out: -5

In: Give recorded inhibition. OC(CNC1CCCCC1)Cn1c2ccccc2c2ccccc21 (stereo not given)
Out: 0

In: Look up and state reported inhibition for N#Cc1ccc(CN2CCCN(Cc3cccc(NC(=O)c4ccc(Cl)c(Cl)c4)c3)CC2)cc1
Out: -1

In: Could you please provide reported inhibition for C=CCOC(=O)N1CCC(CNCc2cccc(-c3cccc(-c4nc5ccc(F)cc5[nH]4)c3)c2)C1 (stereo not given) ? Thanks!
Out: 0

In: Note down inhibition recorded for c1ccc2c(CNc3nc(NCC4CCCCC4)nc4nc[nH]c34)cccc2c1
Out: -2
